meta.source: the supplement of paper PMC10567573

B1: FCHO1 (parent)
chain: FSDPSQSDPETKDFWLNMAALTEA

variants of: B1; experiment: protein stability index of a GFP-peptide fusion (GPS, HEK-293T) (PSI 1-6); higher = more stable; settings: c terminus: a fixed tail appended;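 further: lentivirally expressed fusions sorted by FACS into six bins by GFP to DsRed ratio, PSI derived from sequencing read proportions per bin multiplied by bin number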
assay endpoint: protein stability index

[[record]]
mutation_string = "D13R"
assay_endpoint = "protein stability index"
endpoint_value = 1.97

[[record]]
mutation_string = "P9C"
assay_endpoint = "protein stability index"
endpoint_value = 2.68

[[record]]
mutation_string = "L21T"
assay_endpoint = "protein stability index"
endpoint_value = 2.75

[[record]]
mutation_string = "T11W"
assay_endpoint = "protein stability index"
endpoint_value = 1.74

[[record]]
mutation_string = "P9S"
assay_endpoint = "protein stability index"
endpoint_value = 2.6

[[record]]
mutation_string = "D13M"
assay_endpoint = "protein stability index"
endpoint_value = 1.43

[[record]]
mutation_string = "A20S"
assay_endpoint = "protein stability index"
endpoint_value = 2.94

[[record]]
mutation_string = "F14G"
assay_endpoint = "protein stability index"
endpoint_value = 4.83

[[record]]
mutation_string = "E23Y"
assay_endpoint = "protein stability index"
endpoint_value = 2.1

[[record]]
mutation_string = "E10R"
assay_endpoint = "protein stability index"
endpoint_value = 2.29

[[record]]
mutation_string = "F14D"
assay_endpoint = "protein stability index"
endpoint_value = 4.88

[[record]]
mutation_string = "P4Q"
assay_endpoint = "protein stability index"
endpoint_value = 2.67

[[record]]
mutation_string = "S7R"
assay_endpoint = "protein stability index"
endpoint_value = 2.64

[[record]]
mutation_string = "T11I"
assay_endpoint = "protein stability index"
endpoint_value = 2.7

[[record]]
mutation_string = "S2A"
assay_endpoint = "protein stability index"
endpoint_value = 1.7

[[record]]
mutation_string = "D13L"
assay_endpoint = "protein stability index"
endpoint_value = 1.82

[[record]]
mutation_string = "M18I"
assay_endpoint = "protein stability index"
endpoint_value = 2.37

[[record]]
mutation_string = "A19I"
assay_endpoint = "protein stability index"
endpoint_value = 2.47

[[record]]
mutation_string = "S7N"
assay_endpoint = "protein stability index"
endpoint_value = 2.86

[[record]]
mutation_string = "F1W"
assay_endpoint = "protein stability index"
endpoint_value = 4.1

[[record]]
mutation_string = "K12W"
assay_endpoint = "protein stability index"
endpoint_value = 2.52

[[record]]
mutation_string = "A20D"
assay_endpoint = "protein stability index"
endpoint_value = 3.25

